tested on: MV4-11; parameters: species or system AML cell lines (8); Primary HTS, single concentration about 10 uM, Cell Titer Glo viability; log10 luminescence, per cent inhibition relative to cycloheximide control; details: 72 h, relative to cycloheximide control, log10 luminescence; inhibitor
Structures can show the parent of a compound that is named as a salt. Numbered stars: 1 amine (or outer) side, 2 acyl side, 3 side chain; on linkers, the order of the positions; unused ones are H or OH. Peptide text beside a SMILES is read from it. CO = O=C([*:1])[*:2]
MEASUREMENT_LABEL: MV4-11 %inh

[[record]]
compound = "c1ccc(Cc2nc3ccc(Nc4ncnc5ccccc45)cc3[nH]2)cc1 [SJ000573247-1, C3072/110/1]"
endpoint_result = "1.262%"

[[record]]
compound = "CC(=O)Nc1cccc(C#Cc2cncnc2Nc2ccc(OCc3cccc(F)c3)c(Cl)c2)c1 [SJ000573332-1, U21935/99/1]"
endpoint_result = "0.9824%"

[[record]]
compound = "COc1cc(C)c(N(C)C(=O)CN(C)C)cc1Nc1nc(Nc2cccc(F)c2C(N)=O)c2cc[nH]c2n1 [SJ000573042-1, N5326-79-1]"
endpoint_result = "3.146%"

[[record]]
compound = "CC(C)[C@H](NC(=O)[C@H](CCCNC(=N)N)NC(=O)N[C@@H](Cc1ccccc1)C(=O)O)C(=O)N[C@H](C=O)CCCNC(=N)N [SJ000772410-1, ANTIPAIN, DIHYDROCHLORIDE] ({Phe-CO}-Arg-Val-Arg-aldehyde)"
endpoint_result = "-1.834%"

[[record]]
compound = "COc1ccc2cc1Oc1cc3c(cc1OC)CC[N+](C)(C)[C@H]3Cc1ccc(cc1)Oc1c(OC)c(OC)cc3c1[C@@H](C2)[N+](C)(C)CC3 [SJ000565179-1, METOCURINE IODIDE]"
endpoint_result = "1.51%"

[[record]]
compound = "CCn1c(-c2nonc2N)nc2ccccc21 [SJ000573156-1, U17602/18/1 | JT100597-005A1]"
endpoint_result = "-3.157%"


----------
tested on: ML-2; parameters: species or system AML cell lines (8); Primary HTS, single concentration about 10 uM, Cell Titer Glo viability; log10 luminescence, per cent inhibition relative to cycloheximide control; settings: 72 h, relative to cycloheximide control, log10 luminescence; inhibitor
MEASUREMENT_LABEL: ML-2 %inh (%)

[[record]]
compound = "Cc1nnc(C(C)C)n1[C@@H]1C[C@H]2CC[C@@H](C1)N2CC[C@H](NC(=O)C1CCC(F)(F)CC1)c1ccccc1 [SJ000555710-1, MARAVIROC]"
unit_text = "%"
endpoint_result = -1.344

[[record]]
compound = "CC1(OC(=O)C2CCCC2)C(=O)C=C2C=C(c3ccsc3)OC=C2C1=O (stereo not shown) [SJ000580213-1]"
unit_text = "%"
endpoint_result = -0.1394

[[record]]
compound = "CS(=O)(=O)CCNCc1ccc(-c2ccc3ncnc(Nc4ccc(OCc5ccccc5)c(Cl)c4)c3c2)o1 [SJ000573004-1, U12816/179/1]"
unit_text = "%"
endpoint_result = 2.349

[[record]]
compound = "Nc1c(C(=O)c2ccccc2)cnn1-c1ccc(F)cc1 [SJ000581122-1]"
unit_text = "%"
endpoint_result = 1.652

[[record]]
compound = "Cn1cc(C2=C(Nc3ccccc3)C(=O)NC2=O)c2ccccc21 [SJ000580986-1]"
unit_text = "%"
endpoint_result = 0.1627

[[record]]
compound = "COC(=O)CCCC1=CC2=CC(=O)C(C)(OC(=O)c3cccs3)C(=O)C2=CN1C1CCCCC1 (stereo not shown) [SJ000579837-1]"
unit_text = "%"
endpoint_result = 1.343

[[record]]
compound = "CC(=O)N[C@@H](Cc1ccc(OP(=O)(O)O)cc1)C(=O)N[C@H]1CCC(=O)N2CCC[C@@H](C(=O)NCc3ccccc3)N2C1=O [SJ000581025-1]"
unit_text = "%"
endpoint_result = 0.2617


Provenance of the data: paper PMC6522510
